Assignment: determine reported selectivity ratio for the given molecules.
Assay Notes: Therapeutic index, ratio of TD50 for human foreskin fibroblast cells to ID 50 for Toxoplasma gondii
Type: cell-based
Condition Summary: read-out: TI
Number, no unit, nothing else.

For the molecule `O=C1c2ccccc2N[C@H]2[C@H](O)c3ccccc3N12` , what selectivity ratio is on record?
50

Quick one: selectivity ratio for CC(=O)CC1(O)c2ccccc2-n2c1nc1ccccc1c2=O (centres undefined) ?
49
